# maps each entry to its GI50
- Tested on: SF-268
- PROTOCOL: Cytotoxicity against human SF268 cells assessed as growth inhibition after 48 hrs by SRB assay
- Format: functional
- ASSAY CONTEXT: SF-268, 48 h
QUANTITY KIND: GI50 (nM)

SMILES | QUANTITY KIND | MEASUREMENT
COc1cc(/C(C#N)=C/c2coc3ccccc23)cc(OC)c1OC | GI50 | 4790
COc1cc(/C(C#N)=C/c2cc3ccccc3n2Cc2ccc(C#N)cc2)cc(OC)c1OC | GI50 | 86
COc1ccc(/C(C#N)=C/c2cc3ccccc3o2)cc1OC | GI50 | 2050
COc1cc(/C(C#N)=C/c2nc3ccccc3s2)cc(OC)c1OC | GI50 | 1030
COc1ccc(/C(C#N)=C/c2cc3ccccc3[nH]2)cc1OC | GI50 | 1480
COc1ccc2[nH]cc(/C=C(\C#N)c3cc(OC)c(OC)c(OC)c3)c2c1 | GI50 | 2140

====

# maps each entry to its log10 of CC50
- Test system: MV4-11
- PROTOCOL: Anti-leukemic activity against human MV4-11 cells assessed as cell dead after 24 to 48 hrs by annexin V-FITC/7-AAD staining-based flow cytometric analysis
- Format: functional
- ASSAY CONTEXT: read-out: LD50 (the source's name)
QUANTITY KIND: log10 of CC50 (log10 of the value in nM)

SMILES | log10 of CC50
COc1cc(/C(C#N)=C/c2cc3ccccc3[nH]2)cc(OC)c1OC | 1.64
COc1ccc2[nH]cc(/C=C(\C#N)c3cc(OC)c(OC)c(OC)c3)c2c1 | 2.67
COc1ccc(/C(C#N)=C/c2cc3ccccc3s2)cc1OC | 3.78
COc1cc(OC)cc(/C(C#N)=C/c2cc3ccccc3o2)c1 | 3.07
COc1cc(/C(C#N)=C/c2c[nH]c3ccccc23)cc(OC)c1OC | 2.75
COc1cc(/C(C#N)=C/c2coc3ccccc23)cc(OC)c1OC | 3.66
COc1cc(OC)cc(/C(C#N)=C/c2nc3ccccc3s2)c1 | 3.64
COc1cc(/C(C#N)=C/c2cc3ccccc3o2)cc(OC)c1OC | 1.67

====

# maps each entry to its GI50
- System: IGROV-1
- PROTOCOL: Cytotoxicity against human IGROV1 cells assessed as growth inhibition after 48 hrs by SRB assay
- Assay type: functional
- ASSAY CONTEXT: IGROV-1, 48 h

SMILES | UNITS TEXT | RELATION QUALIFIER | GI50
COc1cc(OC)cc(/C(C#N)=C/c2nc3ccccc3s2)c1 | nM | = | 706
COc1cc(/C(C#N)=C/c2cc3ccccc3[nH]2)cc(OC)c1OC | nM | < | 10
COc1ccc(/C(C#N)=C/c2cc3ccccc3o2)cc1OC | nM | = | 1270
COc1cc(/C(C#N)=C/c2nc3ccccc3s2)cc(OC)c1OC | nM | = | 1270
COc1cc(/C(C#N)=C/c2c[nH]c3ccccc23)cc(OC)c1OC | nM | = | 417
COc1ccc(/C(C#N)=C/c2c[nH]c3ccccc23)cc1OC | nM | = | 21000
COc1cc(/C(C#N)=C/c2cc3ccccc3n2Cc2ccc(C#N)cc2)cc(OC)c1OC | nM | = | 183
COc1cc(OC)cc(/C(C#N)=C/c2c[nH]c3ccccc23)c1 | nM | = | 347
COc1ccc2[nH]cc(/C=C(\C#N)c3cc(OC)c(OC)c(OC)c3)c2c1 | nM | = | 379
COc1ccc(/C(C#N)=C/c2cc3ccccc3[nH]2)cc1OC | nM | = | 482
COc1cc(/C(C#N)=C/c2coc3ccccc23)cc(OC)c1OC | nM | = | 3060
COc1cc(/C(C#N)=C/c2cc3ccccc3o2)cc(OC)c1OC | nM | = | 22

====

- PROTOCOL: Cytotoxicity against human UACC62 cells assessed as growth inhibition after 48 hrs by SRB assay
- Assay type: functional
- ASSAY CONTEXT: UACC-62, 48 h
Mark each entry Met if its GI50 sits below 60 nM, and Not met for all others.

SMILES | CLASS
COc1ccc(/C(C#N)=C/c2cc3ccccc3[nH]2)cc1OC | Met
COc1cc(/C(C#N)=C/c2c[nH]c3ccccc23)cc(OC)c1OC | Met
COc1cc(/C(C#N)=C/c2cc3ccccc3n2Cc2ccc(C#N)cc2)cc(OC)c1OC | Met
COc1ccc(/C(C#N)=C/c2c[nH]c3ccccc23)cc1OC | Not met
COc1ccc(/C(C#N)=C/c2cc3ccccc3o2)cc1OC | Not met

====

- Test system: M14
- PROTOCOL: Cytotoxicity against human M14 cells assessed as growth inhibition after 48 hrs by SRB assay
- Format: functional
- ASSAY CONTEXT: M14, 48 h

SMILES | UNITS TEXT | RELATION QUALIFIER | GI50
COc1cc(/C(C#N)=C/c2nc3ccccc3s2)cc(OC)c1OC | nM | = | 193
COc1cc(/C(C#N)=C/c2cc3ccccc3n2Cc2ccc(C#N)cc2)cc(OC)c1OC | nM | = | 56
COc1cc(/C(C#N)=C/c2cc3ccccc3[nH]2)cc(OC)c1OC | nM | < | 10
COc1cc(OC)cc(/C(C#N)=C/c2c[nH]c3ccccc23)c1 | nM | = | 42
COc1cc(/C(C#N)=C/c2coc3ccccc23)cc(OC)c1OC | nM | = | 667
COc1cc(/C(C#N)=C/c2cc3ccccc3o2)cc(OC)c1OC | nM | < | 10
COc1cc(/C(C#N)=C/c2c[nH]c3ccccc23)cc(OC)c1OC | nM | = | 53
COc1ccc(/C(C#N)=C/c2cc3ccccc3o2)cc1OC | nM | = | 437
COc1ccc(/C(C#N)=C/c2cc3ccccc3[nH]2)cc1OC | nM | = | 39
COc1cc(OC)cc(/C(C#N)=C/c2nc3ccccc3s2)c1 | nM | = | 1210
COc1ccc(/C(C#N)=C/c2c[nH]c3ccccc23)cc1OC | nM | = | 3750
COc1ccc2[nH]cc(/C=C(\C#N)c3cc(OC)c(OC)c(OC)c3)c2c1 | nM | = | 52

====

- PROTOCOL: Cytotoxicity against human OVCAR4 cells assessed as growth inhibition after 48 hrs by SRB assay
- Assay type: functional
- ASSAY CONTEXT: OVCAR-4, 48 h

SMILES | UNITS TEXT | RELATION QUALIFIER | GI50
COc1cc(/C(C#N)=C/c2cc3ccccc3o2)cc(OC)c1OC | nM | = | 39
COc1cc(OC)cc(/C(C#N)=C/c2nc3ccccc3s2)c1 | nM | > | 10000
COc1cc(/C(C#N)=C/c2cc3ccccc3n2Cc2ccc(C#N)cc2)cc(OC)c1OC | nM | = | 672
COc1cc(/C(C#N)=C/c2c[nH]c3ccccc23)cc(OC)c1OC | nM | = | 338
COc1cc(/C(C#N)=C/c2cc3ccccc3[nH]2)cc(OC)c1OC | nM | = | 15200
COc1cc(/C(C#N)=C/c2coc3ccccc23)cc(OC)c1OC | nM | = | 2610

====

- PROTOCOL: Cytotoxicity against human UACC62 cells assessed as growth inhibition after 48 hrs by SRB assay
- Format: functional
- ASSAY CONTEXT: UACC-62, 48 h

SMILES | RELATION QUALIFIER | GI50 (µM)
COc1cc(/C(C#N)=C/c2cc3ccccc3[nH]2)cc(OC)c1OC | < | 0.01
COc1cc(OC)cc(/C(C#N)=C/c2c[nH]c3ccccc23)c1 | = | 0.049
COc1cc(OC)cc(/C(C#N)=C/c2nc3ccccc3s2)c1 | = | 0.755
COc1cc(/C(C#N)=C/c2cc3ccccc3o2)cc(OC)c1OC | < | 0.01
COc1cc(/C(C#N)=C/c2nc3ccccc3s2)cc(OC)c1OC | = | 0.052
COc1cc(/C(C#N)=C/c2coc3ccccc23)cc(OC)c1OC | = | 0.519

====

- Test system: SNB-75
- PROTOCOL: Cytotoxicity against human SNB75 cells assessed as growth inhibition after 48 hrs by SRB assay
- Type: functional
- ASSAY CONTEXT: SNB-75, 48 h
Recorded GI50 determines the label; the label ranges are low bin (below 0.04 µM), mid bin (0.04 µM to below 0.8 µM), high bin (0.8 µM or more)

SMILES | SYSTEM UNDER TEST | CLASS
COc1cc(OC)cc(/C(C#N)=C/c2c[nH]c3ccccc23)c1 | SNB-75 | low bin
COc1ccc(/C(C#N)=C/c2cc3ccccc3[nH]2)cc1OC | SNB-75 | low bin
COc1ccc(/C(C#N)=C/c2cc3ccccc3o2)cc1OC | SNB-75 | high bin
COc1cc(OC)cc(/C(C#N)=C/c2nc3ccccc3s2)c1 | SNB-75 | high bin
COc1cc(/C(C#N)=C/c2c[nH]c3ccccc23)cc(OC)c1OC | SNB-75 | mid bin
COc1cc(/C(C#N)=C/c2coc3ccccc23)cc(OC)c1OC | SNB-75 | mid bin
COc1cc(/C(C#N)=C/c2cc3ccccc3[nH]2)cc(OC)c1OC | SNB-75 | low bin
COc1cc(/C(C#N)=C/c2cc3ccccc3o2)cc(OC)c1OC | SNB-75 | low bin
COc1cc(/C(C#N)=C/c2nc3ccccc3s2)cc(OC)c1OC | SNB-75 | mid bin
COc1ccc2[nH]cc(/C=C(\C#N)c3cc(OC)c(OC)c(OC)c3)c2c1 | SNB-75 | mid bin
COc1ccc(/C(C#N)=C/c2c[nH]c3ccccc23)cc1OC | SNB-75 | high bin
